Target: Thioredoxin reductase 1, cytoplasmic (Rattus norvegicus)
Assay: qHTS Assay for Inhibitors of Mammalian Selenoprotein Thioredoxin Reductase 1 (TrxR1): qHTS; note: nearly all actives have a fitted effect of over 65% in size
Conditions: recombinant rTrxR1, NADPH fluorescence consumption, selenite substrate; series mostly up to 114 µM
Hit rate of the full screen: of about 390,000 compounds, about 4,000 (1%) were called active. Roughly 4% stayed inconclusive and do not appear here. Calls come from the whole dose curve; as a rule, active = well fitted inhibition curve with a large enough effect; inconclusive = small, poorly fitted or top-dose-only effect; inactive = no such curve, though single readings can be large or run the other way. For the sample, actives were picked, then their nearest neighbours and some compounds at random.
Field 'call' accepts active, inactive

Record excerpt, results attached:
{"columns": ["molecule", "studyTarget", "class"],
 "data": [
  ["COCCNC(=O)CN1C2CCC1CC(O)(c1cccnc1)C2 (centres undefined)", "Thioredoxin reductase 1, cytoplasmic (Rattus norvegicus)", "inactive"],
  ["Cc1ncsc1CCCl", "Thioredoxin reductase 1, cytoplasmic (Rattus norvegicus)", "inactive"],
  ["C=CCN1CCC23c4c5ccc(O)c4O[C@H]2C(=O)CC[C@@]3(O)C1C5 (some centres undefined)", "Thioredoxin reductase 1, cytoplasmic (Rattus norvegicus)", "inactive"]
]}

Proceed to the following item.
**Query** # outcome recorded in this test, key = N#Cc1c(Cl)c(Cl)c(Cl)c(C#N)c1Cl
**Result** active
